System: human dystrophin 3′UTR
Experiment: Dys 3′UTR luciferase reporter assay in C2C12 myoblasts co-transfected with microRNA mimics
Format: cell-based, mouse
Settings: C2C12 myoblasts co-transfected with 200 ng Dys 3′UTR reporter and 50 nM microRNA mimic; Renilla luciferase normalized to internal control
property.measured: luciferase protein expression from Dys 3′UTR reporter

1) miR-223: microRNA mimic; hsa-miR-223 3′-ACCCCAUAAACUGUUUGACUGU-5′ (SEQ ID NO: 5) (listed as RNA, chemistry not given here; listed 3' to 5'; listed as Homo sapiens) = significantly inhibited
2) miR-146b-5p: microRNA mimic; hsa-miR-146b-5p 3′-UCGGAUACCUUAAGUCAAGAGU-5′ (SEQ ID NO: 3) (listed as RNA, chemistry not given here; listed 3' to 5'; listed as Homo sapiens) = significantly inhibited

* * *

Tested on: human dystrophin 3′UTR
Assay: Dys 3′UTR luciferase reporter assay in C2C12 myoblasts co-transfected with microRNA mimics
Format: cell-based, mouse
Settings: C2C12 myoblasts co-transfected with 200 ng Dys 3′UTR reporter and 50 nM microRNA mimic; Renilla luciferase normalized to internal control
property.measured: luciferase protein expression from Dys 3′UTR reporter

1) miR-382: microRNA mimic; hsa-miR-382 3′-GCUUAGGUGGUGCUUGUUGAAG-5′ (SEQ ID NO: 14) (listed as RNA, chemistry not given here; listed 3' to 5'; listed as Homo sapiens) = significantly inhibited
2) miR-320a: microRNA mimic; hsa-miR-320a 3′-AGCGGGAGAGUUGGGUCGAAAA-5′ (SEQ ID NO: 7) (listed as RNA, chemistry not given here; listed 3' to 5'; listed as Homo sapiens) = significantly inhibited
3) miR-146a: microRNA mimic; hsa-miR-146a 3′-UUGGGUACCUUAAGUCAAGAGU-5′ (SEQ ID NO: 1) (listed as RNA, chemistry not given here; listed 3' to 5'; listed as Homo sapiens) = significantly inhibited

Origin of measurements: patent US9637738B2
